Listing: AUC of selected compounds
# assay_summary: AUC in rat at 3 mg/kg by LC-MS analysis
# Type: ADME, organism-based
# Design: dose 3 mg/kg
# condition_context: plasma

| entry_smiles | quantity | meas_value |
| --- | --- | --- |
| CN(C)CCn1ncc2c1nc(N)n1c(=O)n(Cc3cccc(Cl)c3)nc21 | AUC | 0.398 µM·h |

Query compound follows.
input: Reported AUC for `C=Cn1ncc2c1nc(N)n1c(=O)n(Cc3ccccc3)nc21` : what is it?
output: 0.248 µM·h

* * *

# system_tested: Adenosine receptor A2a (Homo sapiens)
# Sequence (P29274 whole entry): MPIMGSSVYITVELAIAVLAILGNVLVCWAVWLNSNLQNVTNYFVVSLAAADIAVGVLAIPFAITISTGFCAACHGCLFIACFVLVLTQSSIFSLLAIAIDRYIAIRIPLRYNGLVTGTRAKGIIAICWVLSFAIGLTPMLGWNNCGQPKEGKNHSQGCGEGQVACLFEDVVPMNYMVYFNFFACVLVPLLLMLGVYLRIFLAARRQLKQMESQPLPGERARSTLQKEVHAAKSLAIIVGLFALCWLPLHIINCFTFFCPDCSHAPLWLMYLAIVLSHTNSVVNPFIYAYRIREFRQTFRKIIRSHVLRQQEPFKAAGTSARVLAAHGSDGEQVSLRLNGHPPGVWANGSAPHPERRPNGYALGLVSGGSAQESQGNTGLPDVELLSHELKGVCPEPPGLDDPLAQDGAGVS
# assay_summary: Antagonist activity against human adenosine A2A receptor
quantity: pKi
Note on units: pKi is unitless, being -log10 of a concentration expressed in mol/L.

Answered examples (4):
| entry_smiles | pKi |
| --- | --- |
| Nc1nc(-c2ccccc2)cc2nn(Cc3ccccc3)c(=O)n12 | 9.00 |
| Nc1nc2c(cnn2CCN2CCC3(CC2)OCCO3)c2nn(Cc3cccc(Cl)c3)c(=O)n12 | 7.96 |
| COc1ccc(-c2cc3nn(Cc4ccccc4)c(=O)n3c(N)n2)cc1 | 6.20 |
| Nc1nc2c(cnn2CCN2CCC(N3CCOCC3)CC2)c2nn(Cc3cccc(Cl)c3)c(=O)n12 | 8.17 |

input: Reported pKi for `Nc1nc2c(c3nn(Cc4ccccc4)c(=O)n13)CCc1ccccc1-2` : what is it?
output: 9.30
